Test system: DENV1-4
Assay: Inhibition of replication across dengue serotypes (CFI)
Format: cell-based
Details: Dengue virus, DENV1 / DENV2, read-out: EC50 values for the other three serotypes
Observable: EC50

Exercise: EC50 for CCCC(=O)O[C@H]1CN2CC[C@H](O)[C@@H]2[C@@H](O)[C@@H]1O.Cl [Celgosivir, celgosivir] ?
Solution: 310 to 650 nM

====

Tested on: DENV4
Test: Cell-based flaviviral immunodetection assay (CFI), DENV4
Details: Dengue virus, BHK-21; DENV4, BHK21 cells, 48 hours
Observable: pEC50
Conceptually, pEC50 converts a concentration in mol/L into minus its log10.

Exercise: pEC50 for CCCC(=O)O[C@H]1CN2CC[C@H](O)[C@@H]2[C@@H](O)[C@@H]1O.Cl [Celgosivir, celgosivir] ?
Solution: 6.51
